Each entry below carries its reported Trimeric HA Binding: RLU.
target: recombinant soluble homotrimeric HA, A/Egypt/3300-NAMRU3/08 H5N1 (Influenza A virus A/Egypt/3300-NAMRU3/2008(H5N1)); assay: microarray, transfection SN IgG, trimeric HA; details: remark: other sources report otherwise
Measured quantity: Trimeric HA Binding: RLU (RLU)

Binder	Number
TCN-558 (5248_H10b) (antibody, V domains shown) VH: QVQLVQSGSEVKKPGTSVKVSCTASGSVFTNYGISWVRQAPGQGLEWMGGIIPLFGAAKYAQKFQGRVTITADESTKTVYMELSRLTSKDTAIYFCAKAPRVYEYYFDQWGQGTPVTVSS VL: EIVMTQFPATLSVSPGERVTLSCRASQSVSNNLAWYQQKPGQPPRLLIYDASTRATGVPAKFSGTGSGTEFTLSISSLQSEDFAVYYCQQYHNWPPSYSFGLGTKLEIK	21900
TCN-552 (5249_I23) (antibody, V domains shown) VH: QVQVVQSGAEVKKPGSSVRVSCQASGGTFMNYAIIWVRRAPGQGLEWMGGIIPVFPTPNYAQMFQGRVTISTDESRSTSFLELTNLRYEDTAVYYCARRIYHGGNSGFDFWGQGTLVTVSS VL: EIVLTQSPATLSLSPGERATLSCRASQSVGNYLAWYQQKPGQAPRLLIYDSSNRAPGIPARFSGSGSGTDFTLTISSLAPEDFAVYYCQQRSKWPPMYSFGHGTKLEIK	21200
TCN-557 (5081_A04) (antibody, V domains shown) VH: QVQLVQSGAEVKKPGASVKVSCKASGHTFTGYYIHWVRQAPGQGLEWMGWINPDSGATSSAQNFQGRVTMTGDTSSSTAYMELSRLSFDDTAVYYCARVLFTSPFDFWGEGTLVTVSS VL: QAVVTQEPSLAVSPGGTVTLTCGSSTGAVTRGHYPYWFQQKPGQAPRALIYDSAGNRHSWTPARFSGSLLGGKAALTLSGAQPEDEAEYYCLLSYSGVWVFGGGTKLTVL	26400
